target: JAK3 kinase (Homo sapiens, UniProt P52333)
Sequence (P52333 781-1124): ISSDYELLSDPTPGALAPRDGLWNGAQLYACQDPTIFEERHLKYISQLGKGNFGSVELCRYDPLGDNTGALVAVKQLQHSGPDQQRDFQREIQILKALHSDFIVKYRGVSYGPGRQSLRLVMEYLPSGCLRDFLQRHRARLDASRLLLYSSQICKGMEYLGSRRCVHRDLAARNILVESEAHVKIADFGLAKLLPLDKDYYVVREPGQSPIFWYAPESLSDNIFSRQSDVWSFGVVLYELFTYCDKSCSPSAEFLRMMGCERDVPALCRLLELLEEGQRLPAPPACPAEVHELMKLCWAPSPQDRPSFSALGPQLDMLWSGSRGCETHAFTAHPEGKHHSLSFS
measured.attribute: IC50

Below, each entry is followed by its recorded IC50 result.
O=C1Nc2ccccc2/C1=C1/Nc2ccccc2C1=O [IND, Indirubin]
~50 µM
COc1ccc(-c2oc3c(CC=C(C)C)c(O)cc(O)c3c(=O)c2O)cc1 [ICA, Icaritin]
~20 µM

IC50 value, target or system JAK3 kinase (Homo sapiens, UniProt P52333), for C[C@H]1COC2=C1C(=O)C(=O)c1c2ccc2c1CCCC2(C)C [CRY, Cryptotanshinone] : ~25 µM
